Overview of recorded IC50 for various compounds
- TESTED_SYSTEM: Human immunodeficiency virus type 1 integrase (Human immunodeficiency virus 1, UniProt Q7ZJM1, E92Q)
- Sequence (Q7ZJM1 entry or part of it E92Q): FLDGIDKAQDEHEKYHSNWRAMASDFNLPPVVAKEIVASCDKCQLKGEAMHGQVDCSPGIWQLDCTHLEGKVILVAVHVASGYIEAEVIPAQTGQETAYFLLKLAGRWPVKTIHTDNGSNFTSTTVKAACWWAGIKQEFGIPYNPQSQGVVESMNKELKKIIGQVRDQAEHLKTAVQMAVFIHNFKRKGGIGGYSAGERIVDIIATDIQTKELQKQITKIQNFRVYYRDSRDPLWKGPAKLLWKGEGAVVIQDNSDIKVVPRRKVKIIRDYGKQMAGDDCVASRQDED
- ASSAY_REMARKS: Inhibition of HIV-1 integrase E92Q mutant expressed in Escherichia coli using [32P]-labeled U5B/U5A DNA as substrate assessed as inhibition of 3'-processing reaction after 2 hrs by PAGE analysis in presence of Mg2+
Just the number please, in µM, no unit attached.

>>> value_reported("NC(Cc1ccc(Cl)c(Cl)c1)(P(=O)(O)O)P(=O)(O)O")
7

Shifting focus to the compound that follows.
Ask: What does the record list as IC50 for O=P(O)(O)C(O)(Cc1ccc(Cl)c(Cl)c1)P(=O)(O)O ?
Reply: 35
